Tested on: 786-0 renal
TEST NAME: NCI-60 one-dose screen, 48 h (100 = growth as untreated, 0 = no growth, -100 = all killed)
CONDITION LABEL: 10 µM unless noted
The panel holds about 83,000 compounds, 20% with a hit somewhere; the sample as a whole holds those more often. Calls of active or inactive are those of the source. Rule for the calls: active = growth percent below 10; inactive = the rest.
Entries annotated with measured growth

MOLECULE: CCOC(=O)c1cnn(CC(O)c2ccc(F)cc2)c1NC(=O)Nc1ccccc1F (stereo unspecified)
growth: 90.3% (inactive)

Suppose we examine the molecule `O=C(CCc1nnc2sc(-c3ccccc3)nn12)c1nc2ccccc2[nH]1` ; what growth value has been reported?
103% (inactive)

For `CN1CCn2c(c(Sc3ccc(C(=O)NO)cc3)c3ccccc32)C1=O` then?
39.8% (inactive)
